Listed here: items and their measured inhibition.
tested.target: 17-beta-hydroxysteroid dehydrogenase type 3 (Homo sapiens)
test: Inhibition of 17Beta-HSD3 expressed in intact HEK293 cells assessed as transformation of [14C]-4-androstene-3,17-dione into [14C]-testosterone in presence of NADPH at 0.1 uM after 1 hr incubation
Assay type: cell-based
Kindly answer with a numeric value in %, unit omitted.

Below are worked cases with known answers.
# molecule, reported.endpoint, recorded.measurement
data = [
    ("C[C@]12CC[C@](O)(CN3CCN(S(=O)(=O)c4ccc(C(F)(F)F)cc4)CC3)C[C@@H]1CC[C@@H]1[C@@H]2CC[C@]2(C)C(=O)CC[C@@H]12", "inhibition", 34),
    ("C[C@]12CC[C@@]3(C[C@@H]1CC[C@@H]1[C@@H]2CC[C@]2(C)C(=O)CC[C@@H]12)CN(CCC(CN1CCOCC1)OC(=O)CCC1CCCC1)C(=O)O3 (stereo partly drawn)", "inhibition", 49),
    ("COc1ccc(CN2C[C@]3(CC[C@@]4(C)[C@@H](CC[C@@H]5[C@@H]4CC[C@]4(C)C(=O)CC[C@@H]54)C3)OC2=O)cc1", "inhibition", 43),
    ("C[C@]12CC[C@@]3(C[C@@H]1CC[C@@H]1[C@@H]2CC[C@]2(C)C(=O)CC[C@@H]12)CN(Cc1ccc(C(F)(F)F)nc1)C(=O)O3", "inhibition", 36),
    ("CCCCN(CCCC)C[C@@]1(O)CC[C@@]2(C)[C@@H](CC[C@@H]3[C@@H]2CC[C@]2(C)C(=O)CC[C@@H]32)C1", "inhibition", 53),
]

The molecule listed as C[C@]12CC[C@@]3(C[C@@H]1CC[C@@H]1[C@@H]2CC[C@]2(C)C(=O)CC[C@@H]12)CN(Cc1cccc(C(F)(F)F)c1)C(=O)O3 has a reported inhibition of 36

The molecule listed as C[C@]12CC[C@](O)(CN3CCN(C(=O)c4ccc(C(F)(F)F)cc4)CC3)C[C@@H]1CC[C@@H]1[C@@H]2CC[C@]2(C)C(=O)CC[C@@H]12 has a reported inhibition of 56

The molecule listed as C[C@]12CC[C@](O)(CN3CCN(S(=O)(=O)c4ccccc4C(F)(F)F)CC3)C[C@@H]1CC[C@@H]1[C@@H]2CC[C@]2(C)C(=O)CC[C@@H]12 has a reported inhibition of 63

The molecule listed as C[C@]12CC[C@@]3(C[C@@H]1CC[C@@H]1[C@@H]2CC[C@]2(C)C(=O)CC[C@@H]12)CN(CCBr)C(=O)O3 has a reported inhibition of 31

---

tested.target: 17-beta-hydroxysteroid dehydrogenase type 3 (Homo sapiens)
test: Inhibition of 17Beta-HSD3 expressed in homogenized HEK293 cells assessed as transformation of [14C]-4-androstene-3,17-dione into [14C]-testosterone in presence of NADPH at 0.01 uM
Type: cell-based
reported.endpoint: inhibition (%)
Kindly answer with a numeric value in %, unit omitted.

Below are worked cases with known answers.
# molecule, units.text, inhibition
rows = [
    ("C[C@]12CC[C@](O)(CN3CCN(C(=O)c4cccc(C(F)(F)F)c4)CC3)C[C@@H]1CC[C@@H]1[C@@H]2CC[C@]2(C)C(=O)CC[C@@H]12", "%", 10),
    ("C[C@]12CC[C@](O)(CN3CCN(S(=O)(=O)c4cccc(C(F)(F)F)c4)CC3)C[C@@H]1CC[C@@H]1[C@@H]2CC[C@]2(C)C(=O)CC[C@@H]12", "%", 21),
]

Now consider the entry below.
The compound listed as C[C@]12CC[C@](O)(CN3CCN(Cc4cccc(C(F)(F)F)c4)CC3)C[C@@H]1CC[C@@H]1[C@@H]2CC[C@]2(C)C(=O)CC[C@@H]12 has a reported inhibition of 51
